biological target: recombinant human MAO-A (monoamine oxidase-A) (Homo sapiens); construct: purchased Sigma-Aldrich; experiment: Activity on recombinant human MAO-A, Amplex Red method, 0.5 mM tyramine substrate; assay type: biochemical; settings: 0.5 mM tyramine substrate, read-out: Inhibitory Activity (IC50, nM) MAO-A
Sequence (P21397 whole entry): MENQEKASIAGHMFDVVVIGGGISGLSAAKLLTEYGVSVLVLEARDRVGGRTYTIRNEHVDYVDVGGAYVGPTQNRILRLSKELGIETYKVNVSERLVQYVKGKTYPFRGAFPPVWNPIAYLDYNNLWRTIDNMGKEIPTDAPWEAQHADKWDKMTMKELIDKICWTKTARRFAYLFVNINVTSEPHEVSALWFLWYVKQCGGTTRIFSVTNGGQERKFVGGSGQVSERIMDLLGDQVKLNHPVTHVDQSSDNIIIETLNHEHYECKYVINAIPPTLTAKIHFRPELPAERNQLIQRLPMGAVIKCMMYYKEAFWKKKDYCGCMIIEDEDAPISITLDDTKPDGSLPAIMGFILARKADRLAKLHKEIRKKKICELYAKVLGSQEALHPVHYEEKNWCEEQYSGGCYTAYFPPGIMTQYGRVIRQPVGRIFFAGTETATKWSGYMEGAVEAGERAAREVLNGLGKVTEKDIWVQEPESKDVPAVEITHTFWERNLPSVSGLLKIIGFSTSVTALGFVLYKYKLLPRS
Structures can show the parent of a compound that is named as a salt.
MEASURED_QUANTITY: IC50

Guide cases for IC50, answers given:
>  <COMPOUND>
COc1ccc(C#Cc2cccc(-n3cnn(C/C(=C/F)CN)c3=O)n2)cn1

>  <IC50>
> 100000 nM

$$$$
>  <COMPOUND>
NC/C(=C\F)Cn1ncn(-c2cccc(C#Cc3ccc4c(n3)OCCN4)n2)c1=O

>  <IC50>
> 100000 nM

$$$$
>  <COMPOUND>
NC/C(=C\F)Cn1ncn(-c2ncc(-c3ccc(-c4nnc[nH]4)cc3)s2)c1=O

>  <IC50>
> 100000 nM

$$$$

(Q) For the compound shown here, Cc1ccc(-c2ccc(C(=O)N3CCOCC3)cc2)nc1-n1cnn(C/C(=C/F)CN)c1=O [Example 211, hydrochloride] , give the reported IC50.
(A) > 100000 nM

(Q) Input CC(=O)Nc1cc(-c2cnc(-n3cnn(C/C(=C/F)CN)c3=O)cn2)ccn1
(A) > 100000 nM

(Q) # iterate: NC/C(=C\F)Cn1ncn(-c2ccnc(-c3ccc(N4CCOCC4)cc3)c2)c1=O [Example 207, hydrochloride]
(A) > 100000 nM

(Q) What do you have for NC/C(=C\F)Cn1ncn(-c2cc(/C=C/c3ccccc3)ccn2)c1=O [Example 236, hydrochloride] ?
(A) > 10000 nM

(Q) Same thing, different compound: NC/C(=C\F)Cn1ncn(-c2ncc(-c3ccc4c(c3)OCO4)cc2F)c1=O [Example 162, hydrochloride]
(A) 3140 nM

(Q) Quick one: NC/C(=C\F)Cn1ncn(-c2cccc(C#Cc3ccc4c(c3)CCC(=O)N4)n2)c1=O
(A) > 100000 nM

(Q) Let us now turn to NC/C(=C\F)Cn1ncn(-c2ncc(-c3ccc(-c4ncon4)cc3)s2)c1=O
(A) 130 nM

(Q) Cc1cc(-n2cnn(C/C(=C/F)CN)c2=O)ncc1-c1ccc(-c2nc[nH]n2)cc1 , same question.
(A) > 100000 nM

(Q) Cool, now NC/C(=C\F)Cn1ncn(-c2cccc(-c3cccc4c3oc3ccccc34)n2)c1=O [Example 203, hydrochloride]
(A) 12000 nM

(Q) Can you handle Cc1cc(-n2cnn(C/C(=C/F)CN)c2=O)ncc1-c1ccc2cn[nH]c2c1 next?
(A) 46200 nM

(Q) Another compound: CC(=O)Nc1ccc(-c2cccc(-n3cnn(C/C(=C/F)CN)c3=O)n2)cc1
(A) 1470 nM

(Q) Lookup NC/C(=C\F)Cn1ncn(-c2ncc(-c3cccc(-c4nnc[nH]4)c3)s2)c1=O
(A) > 100000 nM

(Q) Moving on to Cn1cc(C#Cc2cccc(-n3cnn(C/C(=C/F)CN)c3=O)n2)cn1 [Example 257, hydrochloride]
(A) > 100000 nM

(Q) Follow-up item: NC/C(=C\F)Cn1ncn(-c2cnc(-c3ccc4nonc4c3)cn2)c1=O
(A) 770 nM

(Q) Now the compound NC/C(=C\F)Cn1ncn(-c2cccc(-c3ccc(C(=O)N4CCOCC4)cc3)n2)c1=O [Example 186, hydrochloride]
(A) > 100000 nM

(Q) Then what about the compound NC/C(=C\F)Cn1ncn(-c2cc(C#Cc3ccccn3)ccn2)c1=O [Example 244, hydrochloride] ?
(A) > 100000 nM

(Q) Follow-up item: NC/C(=C\F)Cn1ncn(-c2cccc(C#Cc3cnc4c(c3)OCC(=O)N4)n2)c1=O
(A) > 100000 nM

(Q) Request: Cc1cc(-n2cnn(C/C(=C/F)CN)c2=O)ncc1-c1ccc2sc(N)nc2c1 [Example 161, hydrochloride]
(A) 6240 nM
